Reference source for all entries: ChEMBL document CHEMBL4725292

Measured Target: Bromodomain testis-specific protein (Homo sapiens, UniProt Q58F21)
Test Description: Binding affinity to human partial length BRDT bromodomain 2 (K250 to E382 residues) expressed in bacterial expression system by bromoscan assay
Reported Endpoint: Kd (µM)

>>> print(df.to_string())
                           smiles_structure                           measured_target  observed_result
0  Cc1cc2c(-c3ccco3)cnc(N[C@@H]3CCN(C)C[C@H]3C(=O)NC3CCCCC3)c2[nH]c1=O  Bromodomain testis-specific protein (Homo sapiens, UniProt Q58F21)               20

###

Tested on: Blood
Test Description: Inhibition of LPS-induced TNFalpha production in human whole blood preincubated for 30 mins followed by LPS addition and measured after overnight incubation by mesoscale assay
Assay type: functional, tissue-based
pIC50: −log10 of the molar value.
# maps each entry to its pIC50
Reported Endpoint: pIC50

>>> print(df.to_string())
                           smiles_structure  reported_endpoint  observed_result
0  COc1cc2c(cc1-c1c(C)noc1C)ncc1[nH]c(=O)n([C@H](C)c3ccccn3)c12              pIC50             6.42
1  Cc1cc2c(-c3ccco3)cnc(N[C@@H]3CCN(C)C[C@H]3C(=O)NC3CCCCC3)c2[nH]c1=O              pIC50             6.06

###

Measured Target: Bromodomain-containing protein 2 (Homo sapiens, UniProt P25440)
Sequence (P25440 whole entry): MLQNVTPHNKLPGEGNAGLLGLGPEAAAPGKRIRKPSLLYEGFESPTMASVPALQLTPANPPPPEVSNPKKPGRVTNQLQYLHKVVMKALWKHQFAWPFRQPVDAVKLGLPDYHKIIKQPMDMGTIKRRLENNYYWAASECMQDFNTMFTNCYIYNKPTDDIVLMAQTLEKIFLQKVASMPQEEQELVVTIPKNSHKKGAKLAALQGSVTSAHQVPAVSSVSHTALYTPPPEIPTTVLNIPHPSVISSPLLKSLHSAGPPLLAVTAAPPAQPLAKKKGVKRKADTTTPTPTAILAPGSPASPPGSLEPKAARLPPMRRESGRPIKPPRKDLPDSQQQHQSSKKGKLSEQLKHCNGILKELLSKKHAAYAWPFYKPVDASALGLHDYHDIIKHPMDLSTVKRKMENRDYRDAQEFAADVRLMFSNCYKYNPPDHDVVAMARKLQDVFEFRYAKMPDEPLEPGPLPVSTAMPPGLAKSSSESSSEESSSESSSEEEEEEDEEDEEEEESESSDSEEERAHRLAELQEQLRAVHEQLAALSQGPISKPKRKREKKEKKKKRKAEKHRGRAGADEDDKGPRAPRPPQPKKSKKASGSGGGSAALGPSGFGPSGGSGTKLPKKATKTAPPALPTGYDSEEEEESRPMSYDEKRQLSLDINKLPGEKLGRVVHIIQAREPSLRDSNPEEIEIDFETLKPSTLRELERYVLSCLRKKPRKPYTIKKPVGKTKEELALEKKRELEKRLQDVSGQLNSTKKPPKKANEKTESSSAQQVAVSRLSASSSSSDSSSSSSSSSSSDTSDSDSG
Test Description: Binding affinity to full length BRD2 BD2 in human HuT78 cell lysates incubated for 45 mins by liquid chromatography-mass spectrometry based chemoproteomic binding assay
Assay type: subcellular
pKd: −log10 of the molar value.
Reported Endpoint: pKd

In [3]: df
Out[3]:
                                   compound                           measured_target  observed_result
0  Cc1cc2c(-c3ccco3)cnc(N[C@@H]3CCN(C)C[C@H]3C(=O)NC3CCCCC3)c2[nH]c1=O [GSK789]  Bromodomain-containing protein 2 (Homo sapiens, UniProt P25440)           < 4.60

###

Test Description: Lipophilicity, logD of the compound at pH 7.4 by chromatographic method
Format: physicochemical
Stated Conditions: buffer
# maps each entry to its chromatographic logD
Reported Endpoint: chromatographic logD

In [3]: df
Out[3]:
                                    compound  observed_result
 0  Cc1cc2c(-c3ccccc3)cnc(N[C@@H]3CCNC[C@H]3C(=O)NC3CCCCC3)c2[nH]c1=O (mixture of isomers)             3.36
 1  Cc1cc2ccnc(N[C@@H]3CCNC[C@H]3C(=O)NC3CCCC3)c2[nH]c1=O (relative stereo)             1.87
 2  Cc1cc2c(C3=CCOCC3)cnc(N[C@@H]3CCNC[C@H]3C(=O)NC3CCCCC3)c2[nH]c1=O (mixture of isomers)             2.07
 3  Cc1cc2ccnc(N[C@@H]3CCNC[C@H]3C(=O)NC3CCCCC3)c2[nH]c1=O (racemic)             2.03
 4  Cc1cc2ccnc(N[C@@H]3CCNC[C@H]3C(=O)N[C@@H]3CCCOC3)c2[nH]c1=O (mixture of isomers)             0.85
 5  Cc1cc2ccnc(N[C@@H]3CCNC[C@H]3C(=O)N[C@H]3CCCOC3)c2[nH]c1=O (mixture of isomers)             0.98
 6  Cc1cc2c(-c3cccs3)cnc(N[C@@H]3CCNC[C@H]3C(=O)NC3CCCCC3)c2[nH]c1=O (racemic)             3.23
 7  Cc1cc2ccnc(N[C@@H]3CCNC[C@H]3C(=O)NCC(C)C)c2[nH]c1=O (mixture of isomers)              1.6
 8  Cc1cc2cccc(N[C@@H]3CCNC[C@H]3C(=O)NC3CCCCC3)c2[nH]c1=O (racemic)             2.52
 9  Cc1cc2c(-c3cccs3)cnc(N[C@@H]3CCN(C)C[C@H]3C(=O)NC3CCCCC3)c2[nH]c1=O             4.61
10  Cc1csc(-c2cnc(N[C@@H]3CCN(C)C[C@H]3C(=O)NC3CCCCC3)c3[nH]c(=O)c(C)cc23)c1             5.27
11  Cc1cc2c(C3=CCCC3)cnc(N[C@@H]3CCNC[C@H]3C(=O)NC3CCCCC3)c2[nH]c1=O (mixture of isomers)              4.4
12  CO[C@H]1CNC[C@@H](OCC2CCC(F)(F)CC2)[C@@H]1Nc1ncc(-c2cncc(C)c2)c2cc(C)c(=O)[nH]c12             3.17
13  Cc1cc2c(-c3ccco3)cnc(N[C@@H]3CCNC[C@H]3C(=O)NC3CCCCC3)c2[nH]c1=O             3.12
14  Cc1cc2c(-c3ccsc3)cnc(N[C@@H]3CCNC[C@H]3C(=O)NC3CCCCC3)c2[nH]c1=O (mixture of isomers)             3.79
